# Tested on: MDA-MB-436
# EXPERIMENT: Anti-proliferation assay (ATPLite), Chalice synergy score
# Type: cell-based
# CONDITION_DETAILS: Compound 1 in combination with second active agent, mean self-cross + 2σ threshold 1.91

MOLECULE: N#Cc1c(O)c2c(-c3ccc(-c4ccccc4O)cc3)csc2[nH]c1=O [Compound A769662]
Synergy score: 0.06

MOLECULE: O=C(NC1CCNCC1)c1[nH]ncc1NC(=O)c1c(Cl)cccc1Cl [AT7519]
Synergy score: 2.57

MOLECULE: CCN(CCO)CCCOc1ccc2c(Nc3cc(CC(=O)Nc4cccc(F)c4)[nH]n3)ncnc2c1 [AZD1152-HQPA(Barasertib)]
Synergy score: 5.60

MOLECULE: C[C@]1(c2nc3c(C(N)=O)cccc3[nH]2)CCCN1 [ABT-888]
Synergy score: 0.32

MOLECULE: C[C@@H](Oc1cc(-c2cnn(C3CCNCC3)c2)cnc1N)c1c(Cl)ccc(F)c1Cl [Crizotinib]
Synergy score: 1.30

MOLECULE: CNC(=O)c1ccc(-c2cnc3ncc(Cc4ccc5ncccc5c4)n3n2)cc1F [INCB28060]
Synergy score: 0.49

MOLECULE: CC[C@@]1(O)C(=O)OCc2c1cc1n(c2=O)Cc2cc3cc(O)ccc3nc2-1 [10-Hydroxycamptothecin]
Synergy score: 3.62

MOLECULE: O=C(/C=C/c1cccc(S(=O)(=O)Nc2ccccc2)c1)NO [Belinostat]
Synergy score: 7.84

----------
# Tested on: BT-474
# EXPERIMENT: Anti-proliferation assay (ATPLite), Chalice synergy score
# Assay type: cell-based
# CONDITION_DETAILS: Compound 1 in combination with the named second active agent, 72 h, mean of n = 3 experiments in triplicate
Counter-ions that a name gives are not always drawn.
Listed here are compounds together with their documented Synergy score.

COMPOUND: CS(=O)(=O)c1ccc(C(=O)Nc2ccc(Cl)c(-c3ccccn3)c2)c(Cl)c1 [GDC-0449]
TESTED_TARGET: BT-474
Synergy score: 1.47
--
COMPOUND: c1ccc2c(CCNc3ccc(Nc4ccncc4)cc3)c[nH]c2c1 [JNJ 26854165]
TESTED_TARGET: BT-474
Synergy score: 1.77
--
COMPOUND: NC(=O)[C@@H](CCC(F)(F)F)N(Cc1ccc(-c2ncon2)cc1F)S(=O)(=O)c1ccc(Cl)cc1 [BMS-708163]
TESTED_TARGET: BT-474
Synergy score: 0.19
--
COMPOUND: COc1cccc2c1C(=O)c1c(O)c3c(c(O)c1C2=O)C[C@@](O)(C(=O)CO)C[C@@H]3O[C@H]1C[C@H](N)[C@H](O)[C@H](C)O1 [Doxorubicin Hcl, Doxorubicin HCl]
TESTED_TARGET: BT-474
Synergy score: 1.25
--
COMPOUND: CN(C)CC[C@H](CSc1ccccc1)Nc1ccc(S(=O)(=O)NC(=O)c2ccc(N3CCN(Cc4ccccc4-c4ccc(Cl)cc4)CC3)cc2)cc1[N+](=O)[O-] [ABT-737]
TESTED_TARGET: BT-474
Synergy score: 4.14
--
COMPOUND: Clc1ccc(C2(c3ccc(-c4cn[nH]c4)cc3)CCNCC2)cc1 [AT7867]
TESTED_TARGET: BT-474
Synergy score: 1.83
--
COMPOUND: COCCn1c2c([n+](Cc3cnccn3)c1C)C(=O)c1ccccc1C2=O [YM155]
TESTED_TARGET: BT-474
Synergy score: 4.04

All figures here come from patent US9737535B2.
